Reported solubility values for the following molecules.
Assay: Solubility at room temperature, manual dilution combined with visual observation
Format: physicochemical
Conditions: acetone; room temperature; read-out: Solubility
Method: The solubility was tested in various solvents for palmitoyl-L-prolyl-L-prolyl-glycyl-L-tyrosine (Compound II). The solubility test was performed by manual dilution combined with visual observation. The solubility was tested at room temperature in various solvents for Compound I. In addition, the solubility test was performed by manual dilution combined with visual observation. […]
Where a SMILES comes first, the peptide text is derived from it. The star is where a group is joined. Palmitoyl = CCCCCCCCCCCCCCCC(=O)*

[[record]]
molecule = "CCCCCCCCCCCCCCCC(=O)N1CCC[C@H]1C(=O)N1CCC[C@H]1C(=O)NCC(=O)N[C@@H](Cc1ccc(O)cc1)C(=O)[O-].[Na+] [Compound I] (Palmitoyl-PPGY-OH)"
value_observed = "< 1 mg/mL"


# evaluate next
Item CCCCCCCCCCCCCCCC(=O)N1CCC[C@H]1C(=O)N1CCC[C@H]1C(=O)NCC(=O)N[C@@H](Cc1ccc(O)cc1)C(=O)O [Compound II] (Palmitoyl-PPGY-OH) has what recorded solubility?
< 1 mg/mL

###

Experiment: Solubility by shaking at 25° C., filtration and HPLC of the filtrate
Type: physicochemical
Conditions: FaSSIF with 5% Poloxamer 188, 5% Poloxamer 188 added; FaSSIF; LOQ = 2 μg/mL; read-out: Solubility
Where a SMILES comes first, the peptide text is derived from it. The star is where a group is joined. Palmitoyl = CCCCCCCCCCCCCCCC(=O)*
outcome-measure: solubility (µg/mL)
Give just the numeric value; µg/mL need not be written.

Item CCCCCCCCCCCCCCCC(=O)N1CCC[C@H]1C(=O)N1CCC[C@H]1C(=O)NCC(=O)N[C@@H](Cc1ccc(O)cc1)C(=O)O [Compound II] (Palmitoyl-PPGY-OH) has what recorded solubility?
10

###

Assay: Solubility in water of other salts of Compound II
Type: physicochemical
Conditions: read-out: Solubility
Where a name gives a salt, the structure may show the parent alone. Where a SMILES comes first, the peptide text is derived from it. The star is where a group is joined. Palmitoyl = CCCCCCCCCCCCCCCC(=O)*
outcome-measure: solubility

Item CCCCCCCCCCCCCCCC(=O)N1CCC[C@H]1C(=O)N1CCC[C@H]1C(=O)NCC(=O)N[C@@H](Cc1ccc(O)cc1)C(=O)O [Meglumine Salt] (Palmitoyl-PPGY-OH) has what recorded solubility?
< 10000 µg/mL

###

Assay: Solubility by shaking at 25° C., filtration and HPLC of the filtrate
Type: physicochemical
Settings: SGF with 1% SLS, pH 1.2, 1% SLS added; SGF (pH = 1.2); LOQ = 2 μg/mL; read-out: Solubility
Where a SMILES comes first, the peptide text is derived from it. The star is where a group is joined. Palmitoyl = CCCCCCCCCCCCCCCC(=O)*
outcome-measure: solubility (µg/mL)
Give just the numeric value; µg/mL need not be written.

Item CCCCCCCCCCCCCCCC(=O)N1CCC[C@H]1C(=O)N1CCC[C@H]1C(=O)NCC(=O)N[C@@H](Cc1ccc(O)cc1)C(=O)O [Compound II] (Palmitoyl-PPGY-OH) has what recorded solubility?
90

###

Assay: Solubility at room temperature, manual dilution combined with visual observation
Assay type: physicochemical
Conditions: N-methyl pyrrolidone; room temperature; read-out: Solubility
Where a SMILES comes first, the peptide text is derived from it. The star is where a group is joined. Palmitoyl = CCCCCCCCCCCCCCCC(=O)*
outcome-measure: solubility

[[record]]
compound = "CCCCCCCCCCCCCCCC(=O)N1CCC[C@H]1C(=O)N1CCC[C@H]1C(=O)NCC(=O)N[C@@H](Cc1ccc(O)cc1)C(=O)O [Compound II] (Palmitoyl-PPGY-OH)"
value_observed = "1 to 5 mg/mL"


# evaluate next
Item CCCCCCCCCCCCCCCC(=O)N1CCC[C@H]1C(=O)N1CCC[C@H]1C(=O)NCC(=O)N[C@@H](Cc1ccc(O)cc1)C(=O)[O-].[Na+] [Compound I] (Palmitoyl-PPGY-OH) has what recorded solubility?
50 to 100 mg/mL

###

Assay: Solubility at room temperature, manual dilution combined with visual observation
Format: physicochemical
Conditions: methyl t-butyl ether; room temperature; read-out: Solubility
Where a SMILES comes first, the peptide text is derived from it. The star is where a group is joined. Palmitoyl = CCCCCCCCCCCCCCCC(=O)*
Reported solubility values for the following compounds.

[[record]]
compound = "CCCCCCCCCCCCCCCC(=O)N1CCC[C@H]1C(=O)N1CCC[C@H]1C(=O)NCC(=O)N[C@@H](Cc1ccc(O)cc1)C(=O)[O-].[Na+] [Compound I] (Palmitoyl-PPGY-OH)"
value_observed = "< 1000 µg/mL"


Item CCCCCCCCCCCCCCCC(=O)N1CCC[C@H]1C(=O)N1CCC[C@H]1C(=O)NCC(=O)N[C@@H](Cc1ccc(O)cc1)C(=O)O [Compound II] (Palmitoyl-PPGY-OH) has what recorded solubility?
< 1000 µg/mL

###

Assay: Solubility by shaking at 25° C., filtration and HPLC of the filtrate
Assay type: physicochemical
Details: SGF with 5% SLS, pH 1.2, 5% SLS added; SGF (pH = 1.2); LOQ = 2 μg/mL; read-out: Solubility
Description: The solubility was measured by the following method. An appropriate amount of sample was placed in a 1.5 mL HPLC vial, and then 1.0 mL of solvent was added. The HPLC vial was shaken at 25° C. at a speed of 700 rpm, then the slurry was filtered, and the filtrate was analyzed by HPLC. In this case, the limit of quantification (LOQ) was 2 μg/mL. […]
Where a SMILES comes first, the peptide text is derived from it. The star is where a group is joined. Palmitoyl = CCCCCCCCCCCCCCCC(=O)*
outcome-measure: solubility
Don't forget the unit after the value.

Item CCCCCCCCCCCCCCCC(=O)N1CCC[C@H]1C(=O)N1CCC[C@H]1C(=O)NCC(=O)N[C@@H](Cc1ccc(O)cc1)C(=O)O [Compound II] (Palmitoyl-PPGY-OH) has what recorded solubility?
380 µg/mL

###

Experiment: Solubility at room temperature, manual dilution combined with visual observation
Assay type: physicochemical
Details: ethanol-H2O (1:1); room temperature; read-out: Solubility
Where a SMILES comes first, the peptide text is derived from it. The star is where a group is joined. Palmitoyl = CCCCCCCCCCCCCCCC(=O)*
Reported solubility values for the following molecules.

[[record]]
molecule = "CCCCCCCCCCCCCCCC(=O)N1CCC[C@H]1C(=O)N1CCC[C@H]1C(=O)NCC(=O)N[C@@H](Cc1ccc(O)cc1)C(=O)[O-].[Na+] [Compound I] (Palmitoyl-PPGY-OH)"
value_observed = "50 to 100 mg/mL"


# evaluate next
Item CCCCCCCCCCCCCCCC(=O)N1CCC[C@H]1C(=O)N1CCC[C@H]1C(=O)NCC(=O)N[C@@H](Cc1ccc(O)cc1)C(=O)O [Compound II] (Palmitoyl-PPGY-OH) has what recorded solubility?
< 1 mg/mL

###

Assay: Solubility at room temperature, manual dilution combined with visual observation
Assay type: physicochemical
Settings: toluene; room temperature; read-out: Solubility
Where a SMILES comes first, the peptide text is derived from it. The star is where a group is joined. Palmitoyl = CCCCCCCCCCCCCCCC(=O)*
Reported solubility values for the following compounds.

[[record]]
compound = "CCCCCCCCCCCCCCCC(=O)N1CCC[C@H]1C(=O)N1CCC[C@H]1C(=O)NCC(=O)N[C@@H](Cc1ccc(O)cc1)C(=O)O [Compound II] (Palmitoyl-PPGY-OH)"
value_observed = "< 1 mg/mL"


Item CCCCCCCCCCCCCCCC(=O)N1CCC[C@H]1C(=O)N1CCC[C@H]1C(=O)NCC(=O)N[C@@H](Cc1ccc(O)cc1)C(=O)[O-].[Na+] [Compound I] (Palmitoyl-PPGY-OH) has what recorded solubility?
50 to 100 mg/mL

###

Assay: Solubility at room temperature, manual dilution combined with visual observation
Format: physicochemical
Conditions: 1-butanol; room temperature; read-out: Solubility
Where a SMILES comes first, the peptide text is derived from it. The star is where a group is joined. Palmitoyl = CCCCCCCCCCCCCCCC(=O)*
outcome-measure: solubility

[[record]]
compound = "CCCCCCCCCCCCCCCC(=O)N1CCC[C@H]1C(=O)N1CCC[C@H]1C(=O)NCC(=O)N[C@@H](Cc1ccc(O)cc1)C(=O)O [Compound II] (Palmitoyl-PPGY-OH)"
value_observed = "< 1 mg/mL"


# evaluate next
Item CCCCCCCCCCCCCCCC(=O)N1CCC[C@H]1C(=O)N1CCC[C@H]1C(=O)NCC(=O)N[C@@H](Cc1ccc(O)cc1)C(=O)[O-].[Na+] [Compound I] (Palmitoyl-PPGY-OH) has what recorded solubility?
50 to 100 mg/mL

###

Experiment: Solubility at room temperature, manual dilution combined with visual observation
Format: physicochemical
Settings: tetrahydrofuran; room temperature; read-out: Solubility
Where a SMILES comes first, the peptide text is derived from it. The star is where a group is joined. Palmitoyl = CCCCCCCCCCCCCCCC(=O)*
Reported solubility values for the following compounds.

[[record]]
compound = "CCCCCCCCCCCCCCCC(=O)N1CCC[C@H]1C(=O)N1CCC[C@H]1C(=O)NCC(=O)N[C@@H](Cc1ccc(O)cc1)C(=O)O [Compound II] (Palmitoyl-PPGY-OH)"
value_observed = "< 1 mg/mL"


# evaluate next
Item CCCCCCCCCCCCCCCC(=O)N1CCC[C@H]1C(=O)N1CCC[C@H]1C(=O)NCC(=O)N[C@@H](Cc1ccc(O)cc1)C(=O)[O-].[Na+] [Compound I] (Palmitoyl-PPGY-OH) has what recorded solubility?
> 100 mg/mL

The values you see were collected from patent US20220273619A1.
